PROTOCOL: yeast display, Sf9 membrane polyspecificity reagent, FACS + sequencing; frameworks hold sequencing errors
METRIC_NAME: polyreactivity (PSR sort gate)

The reported polyreactivity (PSR sort gate) of the sequence "QVQLVESGGGLVQAGGSLRLSCAASGRTIDDYDMGWYRQAPGKERELVADINSGGSTYYADSVKGRFTISRDNAKNTVYLQMNSLKPEDTAVYYCAATLVPWPYTGPRYGYWGQGTQVTVSS" was high polyreactivity

Lookup result for "QVQLVESGVGLVQAGGSLRLSCAASGSTFTANAMGLYRQAPGKERELVAAISSTGGSTYYADSVKGRFTISRDNEKNTVYLQMNSLKPEDTAVYYCNKDGPYQVITYDYWGQGTKVTVSS" ; measured polyreactivity (PSR sort gate): high polyreactivity

The value of polyreactivity (PSR sort gate) measured for the sequence "QFQLVESGGGLVQAGGSLRLSCAASGSIFYGYTMGWYRQEPGKERELLAAIRKSGGSTNYADSVKGRFTISRDNAKNTVYLQMNSLKPEDTAVYYCSASYYRGRGYYWGQGTQVTVSS" turned out to be high polyreactivity
